Molecular target: Human Neutrophil elastase (Homo sapiens)
Sequence (P08246 30-267): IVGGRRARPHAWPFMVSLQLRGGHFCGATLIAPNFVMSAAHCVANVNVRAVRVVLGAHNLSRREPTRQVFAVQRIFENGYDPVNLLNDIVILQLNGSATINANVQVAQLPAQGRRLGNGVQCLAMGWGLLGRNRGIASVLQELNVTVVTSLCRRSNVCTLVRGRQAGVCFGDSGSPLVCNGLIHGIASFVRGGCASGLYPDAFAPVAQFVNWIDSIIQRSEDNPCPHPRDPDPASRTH
Experiment: Human neutrophil elastase inhibition, pyroGlu-Pro-Val-pNA substrate
Details: 100 mM Tris-HCl, pH 8.3, 0.96 M NaCl, 1% BSA
measuredQuantity: Ki

For the compound Cc1cc2cc(CNC(=O)Cc3cc4cc(C(=N)N)ccc4s3)ccc2[nH]1 [drawing 17 Benzthiophene 5-carboxamidine n=1] , what Ki is on record?
> 100 µM

----------
Biological target: Human lung tryptase
Construct: Human lung tryptase purchased from Cortex Biochem (San Leandro, Calif.) was purified further on a Superdex 200 gel-filtration column
Experiment: Human lung tryptase inhibition, chromogenic GPR-pNA substrate
Format: biochemical
Settings: tryptase 1 nM, GPR-pNA 320 μM, 50 mM Tris-HCl pH 8.0, 37° C.
Doc: threshold 0.2 µM (exclusive). Items with Ki beneath it return met; others return not met.

Confirm or reject: Ki of N=C(N)c1ccc2cc(C(=O)Nc3cccc(N)c3)ccc2c1 lies strictly below 0.2 µM
met

is_below(Ki, 0.2 µM) for N#Cc1ccc2[nH]c(Cc3nc4cc(C(=N)N)ccc4[nH]3)nc2c1 ?
met

In the record for N=C(N)c1ccc2[nH]c(CC(=O)NCc3ccncc3)nc2c1 , is Ki less than 0.2 µM?
not met

Please let me know if N=C(N)c1cccc(NC(=O)Cc2nc3cc(C(=N)N)ccc3[nH]2)c1 shows Ki below 0.2 µM.
not met

Determine whether this compound shows Ki lower than 0.2 µM (ties excluded): N=C(N)c1ccc2[nH]c(CC(=O)Nc3ccccn3)nc2c1
not met

Please let me know if CC(=O)Nc1ccc(NC(=O)Cc2nc3cc(C(=N)N)ccc3[nH]2)cc1 shows Ki below 0.2 µM.
not met

hey, is Ki for N=C(N)c1ccc2sc(C(=O)NCc3ccc(N)cc3)cc2c1 lower than 0.2 µM or not?
not met

Please indicate whether the reported Ki of N=C(N)c1ccc2[nH]c(CC(=O)NCc3cccc(N)c3)nc2c1 is strictly below 0.2 µM.
not met

is_below(Ki, 0.2 µM) for N=C(N)c1ccc2sc(C(=O)Nc3cccc(N)c3)cc2c1 ?
not met

API: query returns whether the compound falls strictly under 0.2 µM in Ki. Query: N=C(N)c1ccc2cc(C(=O)NCc3ccc(N)cc3)ccc2c1
not met

I'd appreciate it if you could check whether N=C(N)c1ccc2[nH]c(CC(=O)NC3CCCCC3)nc2c1 has Ki smaller than 0.2 µM.
not met

API: query returns whether the compound falls strictly under 0.2 µM in Ki. Query: N=C(N)c1ccc2cc(C(=O)NCc3cccc(N)c3)ccc2c1
met

Please indicate whether the reported Ki of N=C(N)c1ccc2[nH]c(CC(=O)NCCc3ccncc3)nc2c1 is strictly below 0.2 µM.
not met

API: query returns whether the compound falls strictly under 0.2 µM in Ki. Query: N=C(N)c1ccc2[nH]c(CC(N)=O)nc2c1
not met

Is it true that Ki reported for N=C(N)c1ccc2sc(C(=O)NCc3cccc(N)c3)cc2c1 is less than 0.2 µM?
not met

Consider N=C(N)c1ccc2[nH]c(CC(=O)NCc3ccccc3)nc2c1 . Does its Ki lie strictly below 0.2 µM?
not met

----------
Target: Human plasma kallikrein (Homo sapiens, UniProt P03952)
Sequence (P03952 391-638 limits assumed): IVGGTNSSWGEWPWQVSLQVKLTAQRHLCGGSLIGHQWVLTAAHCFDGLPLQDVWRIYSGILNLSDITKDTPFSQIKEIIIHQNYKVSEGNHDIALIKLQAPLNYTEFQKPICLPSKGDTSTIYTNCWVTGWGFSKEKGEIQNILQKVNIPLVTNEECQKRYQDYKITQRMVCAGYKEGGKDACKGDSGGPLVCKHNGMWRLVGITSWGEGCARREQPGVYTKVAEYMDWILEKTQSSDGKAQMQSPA
Sequence (P03952 20-390 partner limits assumed): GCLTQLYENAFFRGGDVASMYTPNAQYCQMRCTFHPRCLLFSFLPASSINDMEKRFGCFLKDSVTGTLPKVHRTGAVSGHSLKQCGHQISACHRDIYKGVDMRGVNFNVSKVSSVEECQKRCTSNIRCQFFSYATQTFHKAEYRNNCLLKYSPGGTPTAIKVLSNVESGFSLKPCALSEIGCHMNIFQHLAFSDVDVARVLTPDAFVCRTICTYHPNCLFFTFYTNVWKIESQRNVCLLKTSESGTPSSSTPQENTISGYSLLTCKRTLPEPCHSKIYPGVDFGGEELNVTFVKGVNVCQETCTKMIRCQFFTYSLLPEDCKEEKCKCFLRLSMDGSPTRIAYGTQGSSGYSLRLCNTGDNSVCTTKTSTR
Assay: Human plasma kallikrein inhibition, H-D-Prolyl-Phe-Arg-pNA substrate
Settings: 50 mM Tris-HCl, pH 7.8, 200 mM NaCl, 0.05% BSA
measuredQuantity: Ki (nM)
Just the number in nM, nothing appended.

Requested field: Ki. Item: Cc1cc2cc(CNC(=O)Cc3cc4cc(C(=N)N)ccc4s3)ccc2[nH]1 [drawing 17 Benzthiophene 5-carboxamidine n=1]
1600

----------
Molecular target: Bovine Pancreatic Chymotrypsin (Bos taurus, UniProt P00766)
pKi: −log10 of the molar value.
measuredQuantity: pKi

Notebook entry, Bovine Pancreatic Chymotrypsin (Bos taurus, UniProt P00766) assay: pKi of Cc1cc2cc(CNC(=O)Cc3cc4cc(C(=N)N)ccc4s3)ccc2[nH]1 [drawing 17 Benzthiophene 5-carboxamidine n=1] = ?
< 4.00

----------
Target: Human Neutrophil Cathepsin G (Homo sapiens, UniProt P08311)
Sequence (P08311 21-244): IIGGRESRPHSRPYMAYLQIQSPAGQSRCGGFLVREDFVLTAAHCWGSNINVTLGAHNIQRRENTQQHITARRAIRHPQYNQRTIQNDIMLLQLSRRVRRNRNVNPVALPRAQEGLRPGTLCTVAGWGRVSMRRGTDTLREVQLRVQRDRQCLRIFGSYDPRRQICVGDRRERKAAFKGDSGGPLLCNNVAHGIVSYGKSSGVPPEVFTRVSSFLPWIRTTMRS
Assay: Human neutrophil cathepsin G inhibition, N-Suc-Ala-Ala-Pro-Phe-pNA substrate
Conditions: 625 mM Tris-HCl, pH 7.5, 2.5 mM MgCl2, 0.125% Brij 35
measuredQuantity: Ki

Looking for the measured Ki of Cc1cc2cc(CNC(=O)Cc3cc4cc(C(=N)N)ccc4s3)ccc2[nH]1 [drawing 17 Benzthiophene 5-carboxamidine n=1] , can you help?
> 100 µM

----------
Molecular target: Bovine pancreatic Trypsin (TPCK-treated) (Bos taurus, UniProt P00760)
Construct: from tissue; host or cells: bovine pancreas
Sequence (P00760 24-246): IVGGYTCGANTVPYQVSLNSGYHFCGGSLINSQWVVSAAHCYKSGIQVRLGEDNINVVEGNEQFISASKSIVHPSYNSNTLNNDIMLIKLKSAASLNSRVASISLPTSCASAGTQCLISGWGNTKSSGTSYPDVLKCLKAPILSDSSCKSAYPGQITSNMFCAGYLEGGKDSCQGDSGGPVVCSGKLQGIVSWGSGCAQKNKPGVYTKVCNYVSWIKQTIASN
Experiment: Bovine pancreatic trypsin inhibition, N-α-Benzoyl-L-Arg-pNA substrate
Type: biochemical
Conditions: 50 mM Tris-HCl, pH 8.2, 20 mM CaCl2
Entries annotated with measured pKi
Would you please state pKi, meaning minus log10 of the concentration in mol/L, as a bare number?

Reference set (2 entries):
N=C(N)c1ccc2sc(C(=O)NCCc3ccc(N)cc3)cc2c1 5.08
N=C(N)c1ccc2sc(C(=O)NCc3cccc(N)c3)cc2c1 5.04

Kindly review the next molecule as well.
Fill blank: measured pKi of the molecule N=C(N)c1ccc2sc(C(=O)NCc3ccc(N)cc3)cc2c1 is ____.
5.06

----------
Target: Human lung tryptase
Construct: Human lung tryptase purchased from Cortex Biochem (San Leandro, Calif.) was purified further on a Superdex 200 gel-filtration column
Experiment: Human lung tryptase inhibition, chromogenic GPR-pNA substrate
Format: biochemical
Conditions: tryptase 1 nM, GPR-pNA 320 μM, 50 mM Tris-HCl pH 8.0, 37° C.
measuredQuantity: pKi
// pKi is dimensionless: -log10 of concentration (M)

Consider the following illustrative entries.
compound	pKi
N=C(N)c1ccc2cc(CC(=O)Nc3cccc(N)c3)ccc2c1	5.92
N=C(N)c1ccc2[nH]c(CC(=O)NCc3ccc(CN)cc3)nc2c1 [CH2Ph(4-CH2NH2)]	5.60
CCNC(=O)Cc1nc2cc(C(=N)N)ccc2[nH]1 [CH2CH3]	5.13
N=C(N)c1ccc2sc(CC(=O)NCc3cccc(N)c3)cc2c1	7.05

As a next step, examine the compound that follows.
Reported pKi, compound N=C(N)c1ccc2sc(C(=O)NCCc3ccc(N)cc3)cc2c1 : ____
6.77

This collection of values is drawn from patent US6362216B1.
